Task for the reader: assign each of the following compounds its reported Ki.
Target: UniProt:Q00910
Assay: TP_TRANSPORTER: inhibition of PGF2alpha uptake in PGT-expressing HeLa cells
Answers are plain numbers, in µM.

1) O=C1OC(c2ccc(O)c(S(=O)(=O)O)c2)(c2ccc(O)c(S(=O)(=O)O)c2)c2c(Br)c(Br)c(Br)c(Br)c21 [SULFOBROMOPHTHALEIN SODIUM] ... 5.8
2) CC1(C)C(/C=C/C=C/C=C/C=C2\N(CCCCS(=O)(=O)O)c3ccc4ccccc4c3C2(C)C)=[N+](CCCCS(=O)(=O)[O-])c2ccc3ccccc3c21 [INDOCYANINE GREEN] ... 35
3) Cc1c(C2(c3cc(Br)c(O)c(Br)c3C)OS(=O)(=O)c3ccccc32)cc(Br)c(O)c1Br [BROMCRESOL GREEN] ... 3.6

Switching to the query record.
Give its Ki value. Item: NS(=O)(=O)c1cc(C(=O)O)c(NCc2ccco2)cc1Cl [FUROSEMIDE]
47
